The reported measurements were obtained from paper PMC11099041.

measurement_protocol: Mouse pharmacokinetics in CD-1 mice (blood, kidney, liver, lung)
Assay type: in vivo
conditions: male, CD-1, mouse, in vivo, 1 mg/kg, Liver; 8 h; 1 mg/kg IV; mean; read-out: Concentration (µM) from 1 mg/kg Dosing Liver
reported_metric: concentration at 8 h (µM)
Give bare numbers, in µM.

Given item Cc1ncsc1-c1ccc(C(C)NC(=O)C2CC(O)CN2C(=O)C(c2cc(N3CCC(CN4CCC(OC5CC(Oc6cc(N7C8CCC7CN(c7cc(-c9ccccc9O)nnc7N)C8)ccn6)C5)CC4)CC3)no2)C(C)C)cc1 (stereo not shown) , the value recorded as its concentration at 8 h is 0.045

* * *

measurement_protocol: Mouse pharmacokinetics in CD-1 mice (blood, kidney, liver, lung)
Format: in vivo
conditions: male, CD-1, mouse, in vivo, 1 mg/kg, Kidney; 24 h; 1 mg/kg IV; individual animals; read-out: Concentration (µM) from 1 mg/kg Dosing Kidney
reported_metric: concentration at 24 h

// Cc1ncsc1-c1ccc(C(C)NC(=O)C2CC(O)CN2C(=O)C(c2cc(N3CCC(CN4CCC(OC5CC(Oc6cc(N7C8CCC7CN(c7cc(-c9ccccc9O)nnc7N)C8)ccn6)C5)CC4)CC3)no2)C(C)C)cc1 (stereo not shown) [A947] : concentration at 24 h value = 0.019 µM

* * *

measurement_protocol: Mouse pharmacokinetics in CD-1 mice (blood, kidney, liver, lung)
Format: in vivo
conditions: male, CD-1, mouse, lung, intravenous, 20 mg/kg, Lung; 48 h; 20 mg/kg IV; mean; read-out: Concentration (µM) from 20 mg/kg Dosing Lung
reported_metric: concentration at 48 h
Answer by giving the amount and then stating its unit.

// concentration at 48 h lookup, compound = Cc1ncsc1-c1ccc(C(C)NC(=O)C2CC(O)CN2C(=O)C(c2cc(N3CCC(CN4CCC(OC5CC(Oc6cc(N7C8CCC7CN(c7cc(-c9ccccc9O)nnc7N)C8)ccn6)C5)CC4)CC3)no2)C(C)C)cc1 (stereo not shown) , result: 0.658 µM

* * *

measurement_protocol: Mouse pharmacokinetics in CD-1 mice (blood, kidney, liver, lung)
Assay type: in vivo
conditions: male, CD-1, mouse, whole blood, iv, CD-1 mice IV; blood; dose = c0
reported_metric: clearance

The compound listed as Cc1ncsc1-c1ccc(C(C)NC(=O)C2CC(O)CN2C(=O)C(c2cc(N3CCC(CN4CCC(OC5CC(Oc6cc(N7C8CCC7CN(c7cc(-c9ccccc9O)nnc7N)C8)ccn6)C5)CC4)CC3)no2)C(C)C)cc1 (stereo not shown) has a reported clearance of 15 to 20 mL/min/kg

* * *

measurement_protocol: Mouse pharmacokinetics in CD-1 mice (blood, kidney, liver, lung)
Format: in vivo
conditions: male, CD-1, mouse, liver, intravenous, 20 mg/kg, Liver; 48 h; 20 mg/kg IV; mean; read-out: Concentration (µM) from 20 mg/kg Dosing Liver
reported_metric: concentration at 48 h

# compound Cc1ncsc1-c1ccc(C(C)NC(=O)C2CC(O)CN2C(=O)C(c2cc(N3CCC(CN4CCC(OC5CC(Oc6cc(N7C8CCC7CN(c7cc(-c9ccccc9O)nnc7N)C8)ccn6)C5)CC4)CC3)no2)C(C)C)cc1 (stereo not shown) [A947] ; its concentration at 48 h = 1.9 µM

* * *

measurement_protocol: Mouse pharmacokinetics in CD-1 mice (blood, kidney, liver, lung)
Assay type: in vivo
conditions: male, CD-1, mouse, liver, intravenous, for the 2 dose levels; read-out: Tissue-to-blood AUC ratio, liver
reported_metric: Kp

Lookup result for Cc1ncsc1-c1ccc(C(C)NC(=O)C2CC(O)CN2C(=O)C(c2cc(N3CCC(CN4CCC(OC5CC(Oc6cc(N7C8CCC7CN(c7cc(-c9ccccc9O)nnc7N)C8)ccn6)C5)CC4)CC3)no2)C(C)C)cc1 (stereo not shown) [A947] ; measured Kp: 50 to 127
